- tgt: D(4) dopamine receptor (Homo sapiens)
- Sequence (P21917 whole entry): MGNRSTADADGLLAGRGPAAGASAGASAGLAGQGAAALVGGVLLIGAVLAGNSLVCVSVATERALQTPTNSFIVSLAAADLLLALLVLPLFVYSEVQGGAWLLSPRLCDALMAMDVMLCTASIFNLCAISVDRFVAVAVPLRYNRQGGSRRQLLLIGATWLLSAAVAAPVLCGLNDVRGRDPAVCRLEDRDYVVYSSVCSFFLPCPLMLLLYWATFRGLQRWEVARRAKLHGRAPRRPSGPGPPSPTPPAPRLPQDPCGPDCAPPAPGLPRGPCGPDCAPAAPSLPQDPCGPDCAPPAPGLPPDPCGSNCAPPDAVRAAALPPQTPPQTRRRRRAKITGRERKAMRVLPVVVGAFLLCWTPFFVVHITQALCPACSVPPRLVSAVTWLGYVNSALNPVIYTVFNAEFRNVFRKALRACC
- method_description: Agonist activity at human D4.4 receptor in HEK293 cells coexpressing G-alpha-qo5 by FLIPR
property_label: pEC50
// pEC50 is dimensionless: -log10 of concentration (M)

Exercise: Output measured pEC50 for this item: c1ccc(N2CCN(Cc3nc4ccccc4[nH]3)CC2)nc1
Solution: 7.92
